# Tested on: HCT116 wild-type cells
# Test summary: Cell proliferation inhibition (CellTiter-Glo), HCT116 wild-type cells
# Assay type: cell-based
# Measurement context: Homo sapiens, HCT-116; HCT116 wild-type cells, proliferation inhibition, Cell Titer-Glo; read-out: HCT116 IC50
Measurement type: pIC50
Notebook: values listed as pIC50 are -log10 of the concentration (mol/L).

Nc1nc2cc3c(cc2n2cncc12)C(=O)N(Cc1ccc(C(F)(F)F)cn1)CC/C=C\3 ... 6.65
Nc1nc2cc3c(cc2n2cncc12)C(=O)N(Cc1ccc(C24CC(C2)C4)cn1)CCCOC3 ... 6.42
Nc1nc2cc3c(cc2c2c1COC2)C(=O)N(C1COCc2nc(C(F)(F)F)ccc21)CCC/C=C\3 (single isomer, unassigned) [Example 165-P1] ... 6.17

Switching to the query record.
Lab note: measured pIC50 of Nc1nc2cc3c(cc2c2c1COC2)C(=O)N(Cc1ccc(C(F)(F)F)cn1)CCC/C=C\3 was 6.55
